# Tested on: rat liver microsomes
# Format: in vitro ADME
# condition.notes: column not specified; microsomal incubation 50 μM PCB, 30 min
Enantiomeric fraction (EF) of OH-PCB metabolite for assorted compounds

structure.string	readout.value
Oc1cc(Cl)c(Cl)c(-c2cc(Cl)c(Cl)cc2Cl)c1Cl	0.65
Oc1cc(Cl)c(Cl)c(-c2ccc(Cl)cc2Cl)c1Cl	0.54

Read the next record carefully.
**Q:** What does the record list as Enantiomeric fraction (EF) of OH-PCB metabolite for `Oc1cc(Cl)c(Cl)c(-c2ccc(Cl)c(Cl)c2Cl)c1Cl` ?
**A:** 0.31
